- MEASUREMENT_DESCRIPTION: in vivo
- DETAILS: rat, blood; One Hour; oral, 50 mg/kg, male wister rats (7 weeks old); bioassay (Escherichia coli SC507)
REPORTED_METRIC: concentration at 1 h (ng/mL)

# TEST_SMILES, QUANTITATIVE_RESULT
data = [
    ("CNC(=O)/C=C\\SC1=C(C(=O)O)N2C(=O)[C@@H](NC(=O)/C(=N\\OCC(=O)O)c3csc(N)n3)[C@H]2SC1", 20800),
    ("CCNC(=O)/C=C\\SC1=C(C(=O)[O-])N2C(=O)[C@@H](NC(=O)/C(=N\\OCC(=O)[O-])c3csc(N)n3)[C@H]2SC1.[Na+].[Na+]", 26800),
]
